assay: chemical genetic growth profiling, strain panel (AID 1159580);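 further: tested at 20 µM; growth read once vehicle control cultures reached saturation at 30 °C; 1 = growth at the plate median or of vehicle wells; lower values mean less growth of the strain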; settings: S. cerevisiae deletion strains, growth OD, locus YGL167C, strain pmr1, hits give low values
The campaign covered roughly 5,500 compounds. About 2,000 (36%) were called active. Inconclusive results (about 18%) are left out. The list shows a part of the results.
Rule: measured normalized growth below 1 gets 1.0; anything equal to or greater than 1 gets 0.0.

N[C@@H]1[C@@H](O)[C@H](O)[C@@H](CO)O[C@H]1O: 0.0

Please check: normalized growth for CCN(CC)CCOC(=O)C(c1ccccc1)c1ccccc1 , strictly under 1 or not?
1.0

Please check: normalized growth for O=C(O)c1ccccc1C(=O)Nc1ccc(S(=O)(=O)Nc2nccs2)cc1 , strictly under 1 or not?
1.0

----------
experiment: chemical genetic growth profiling, strain panel (AID 1159580);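 further: tested at 20 µM; growth read once vehicle control cultures reached saturation at 30 °C; 1 = growth at the plate median or of vehicle wells; lower values mean less growth of the strain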; details: S. cerevisiae deletion strains, growth OD, locus YHR013C, strain ard1, hits give low values
About 2,000 (36%) of roughly 5,500 compounds were called active. Roughly 18% stayed inconclusive and do not appear here. This is one part of the list.
Kindly supply the reported normalized growth values for the records listed here.
One number for each entry.

CC1(C)C(O)CC(O)C2(C)C1CC(O)C1(C)C2CCC2(C)C(c3ccoc3)OC(=O)C3OC321 (stereo unspecified): 0.959

# per-item lookup of normalized growth; items listed below
1. CN(C)N=Nc1nc[nH]c1C(N)=O
2. COc1cc(S(C)=O)ccc1-c1nc2ncccc2[nH]1 (stereo unspecified)
3. CC1=C2[C@H]3OC(=O)[C@@H](C)[C@@H]3CC[C@@]2(C)C=CC1=O
4. Nc1cc(C(Cl)=C(Cl)Cl)c(S(N)(=O)=O)cc1S(N)(=O)=O
5. COc1cc(OC)c(OC)cc1C=O

1: 0.965; 2: 0.929; 3: 0.956; 4: 1.03; 5: 1.02

----------
assay: chemical genetic growth profiling, strain panel (AID 1159580);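 further: tested at 20 µM; growth read once vehicle control cultures reached saturation at 30 °C; 1 = growth at the plate median or of vehicle wells; lower values mean less growth of the strain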; details: S. cerevisiae deletion strains, growth OD, locus YJL129C, strain trk1, hits give low values
About 2,000 (36%) of roughly 5,500 compounds were called active. Not shown: some 18% with an inconclusive outcome. Some of the results follow.
Quantity measured: normalized growth
Numbers only.

# per-item lookup of normalized growth; items listed below
1. Cc1cc(C)cc(OCC2CNC(=O)O2)c1 (centres undefined)
2. CN(C)CCOC(=O)COc1ccc(Cl)cc1
3. C[C@]12C=CC(=O)C=C1CCC1C3C[C@@H](O)[C@](O)(C(=O)CO)[C@@]3(C)C[C@H](O)[C@@]12F (some centres undefined)
4. COC(=O)CCC(C)C1CCC2C3CC[C@@H]4C[C@H](O)CC[C@]4(C)C3C[C@H](O)[C@]12C (some centres undefined)
5. COC(=O)CCC(C)[C@H]1CCC2C3C(C[C@H](O)[C@@]21C)[C@@]1(C)CC[C@@H](O)C[C@H]1C[C@H]3O (some centres undefined)
6. CC(CCC(=O)O)[C@H]1CCC2C3CC[C@@H]4C[C@H](O)CC[C@]4(C)C3CC[C@@]21C (some centres undefined)

[0.974, 1, 0.948, 0.934, 1.03, 0.914]

----------
assay: chemical genetic growth profiling, strain panel (AID 1159580);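 further: tested at 20 µM; growth read once vehicle control cultures reached saturation at 30 °C; 1 = growth at the plate median or of vehicle wells; lower values mean less growth of the strain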; details: S. cerevisiae deletion strains, growth OD, locus YCL069W, strain vba3, hits give low values
Hit rate of the full screen: of about 5,500 compounds, about 2,000 (36%) were called active. Roughly 18% stayed inconclusive and do not appear here. The list shows a part of the results.
Kindly supply the reported normalized growth values for the records listed here.
Answers are plain numbers.

Nc1cc(-c2ccncc2)c[nH]c1=O: 0.757
Nc1ccncc1: 0.998
CC1CCC2(OC1)OC1CC3C4CCC5C[C@@H](O)CCC5(C)C4=CCC3(C)C1[C@@H]2C (some centres not stated): 0.994
C[C@H](N)[C@H](O)c1cccc(O)c1: 0.994

# per-item lookup of normalized growth; items listed below
1. N[C@H](Cc1cc(I)c(Oc2ccc(O)c(I)c2)c(I)c1)C(=O)O
2. Nc1ccn(C2O[C@H](CO)[C@@H](O)[C@H]2O)c(=O)n1 (some centres not stated)
3. C[C@@H](N)[C@@H](O)c1ccccc1

1
0.992
1
